Test system: SF-268 CNS
Experiment: NCI-60 one-dose screen, 48 h
Conditions: 10 µM unless noted
Method: Cells are grown in 96 well plates and exposed to the test compound for 48 hours. Compounds are tested at a single concentration, which is 10^-5 M for most compounds. The reported endpoint is percent growth (GI% or GIPRCNT), where numbers from 0 - 100% represent growth inhibition, and numbers from -100% - 0 represent cell death. For example, a value of 40 represents 60% growth inhibition. A value of 0 means no net growth occurred over the course of the experiment. […]
This is part of a sample that, as a whole, favours compounds with a hit. Of some 83,000 tested, about 20% had one in any assay. Activity calls are given as the source filed them. Rule for the calls: active = growth percent below 10; inactive = the rest.
Labels: active, inactive

| molecule | answer-label |
| --- | --- |
| COc1ccc(C2=CC(c3cc(OC)c(OC)c(OC)c3)NC(=O)N2)cc1OC (stereo not given) | inactive |
| CCN(CC)CCOc1ccc(/C(=C(/C)c2ccccc2)c2ccc(OC(C)=O)cc2)cc1 | inactive |
| COc1ccc(-c2c(N)n[nH]c2-c2cc3c(c(OC)c2OC)OCO3)cc1 | inactive |
| C=C1CCC2C3(C)COC(C)(C)OC3CCC2(C)C1C/C=C1/C(=O)OCC1Oc1ccccc1OC (stereo not given) | inactive |
| COc1cc(/C=C/C(=O)c2ccc(Nc3ncnc4cc(OC)c(OC)cc34)cc2)cc(OC)c1 | inactive |
| COc1ccc(N2CCN(Cc3cc(C(=O)/C=C/c4c[nH]c5ccccc45)ccc3O)CC2)cc1 | inactive |
| COc1ccc(-c2cc(-c3ccccc3)nc(SCCCC(=O)NO)n2)cc1OC | active |
| COc1ccc(OC)c(C2OC(c3ccc4ccccc4c3O)=NN2C(C)=O)c1 (stereo not given) | inactive |
| COc1ccc(-c2nc(/C=C3/C(=O)Nc4ccc(F)cc43)c3ccccn23)cc1 | inactive |
| C=C1C(=O)O[C@H]2[C@H]1CC/C(COC(=O)NCc1ccccc1OC)=C\CC[C@@]1(C)O[C@@H]21 | inactive |
| COc1ccc(Nc2ncccc2C(=O)NCc2cn(Cc3cccc(Oc4ccccc4)c3)nn2)cc1 | inactive |
| S=C(S)NCCc1c[nH]c2ccccc12 | inactive |
| N#C/C(=C1C=C/C(=N/O)C(Cl)=C/1)c1ccc(Cl)cc1 | inactive |
| COc1ccc(-n2c(=S)sc3c(Cl)nc(C)nc32)c(OC)c1 | active |
| S=c1[nH]nc(-c2cc3ccc2CCc2ccc(cc2)CC3)n1-c1ccccc1 | inactive |
| N/C(=N\C(N)=N\c1nc2ccccc2s1)c1cccc(Br)c1 | inactive |
| O=c1ccn(-c2ncnc3nc[nH]c23)cc1 | inactive |
| COc1ccc(Nc2ncccc2C(=O)NCc2cn(Cc3cccc(Oc4ccccc4)c3)nn2)c(OC)c1 | inactive |
| c1cc(C2=N[C@@H]3c4ccccc4C[C@@H]3O2)nc(C2=N[C@@H]3c4ccccc4C[C@@H]3O2)c1 | inactive |
| COc1cc(Nc2nc(N[C@H]3CCCC[C@@H]3N)nc3cc[nH]c(=O)c23)cc(OC)c1 | inactive |
| CN(C)c1nc2c(N)ncnc2n1C1OC(CO)C(O)C1O (stereo not given) | inactive |
| COc1ccc(-c2ccc(-c3ccc(-c4ccc(C(=N)N)cc4)s3)s2)cc1OC | inactive |
| CCCCCCCCCCCCCCCCCCNC(=O)[C@H]1CSC(c2cccs2)N1 (stereo not given in full) | active |
| O=C(c1ccccc1)C1OC1c1ccc([N+](=O)[O-])cc1 (stereo not given) | inactive |
| C[n+]1c(/C=C/c2c(O)ccc3ccccc23)ccc2ccccc21 | inactive |
| O=C(Nc1ccncc1)C(=O)c1cn(S(=O)(=O)c2ccccc2F)c2ccccc12 | inactive |
| O=C1/C(=C/c2ccc(Cl)cc2)CN(C(=O)CCN2CCC(=NO)CC2)C/C1=C\c1ccc(Cl)cc1 | active |
| COc1ccc(-n2c(=O)sc3c(Cl)nc(C)nc32)c(OC)c1 | inactive |
| FC(F)(F)c1cccc(-c2cn3c(ccc4ccccc43)n2)c1 | inactive |
| COC(=O)c1cc2cc(-c3ccc(OC)cc3)cnc2[nH]1 | inactive |
| CCCCCCCC/C=C/CCCCCCCC1=NC(C)(C)CN1C(C)(C)CO | inactive |
| CC(C)(C)n1cc(-c2ccnc(NCCCNS(=O)(=O)c3ccc(Cl)cc3)c2)c(-c2cccc(O)c2)n1 | inactive |
| CCN1CCN(CC(=O)N2c3cccc4cccc(c34)N(C(=O)CN3CCN(CC)CC3)C2c2cn(-c3ccccc3)nc2-c2cccc([N+](=O)[O-])c2)CC1 | inactive |
| COc1ccc(-c2ccc(C)n2-c2ccc(-c3nc4ccccc4s3)cc2)cc1 | inactive |
| COC1=C(OC)C(=O)C(CCCCCCCCCC[P+](c2ccccc2)(c2ccccc2)c2ccccc2)=C(C)C1=O | active |
| COc1ccc2c(c1)cn1c3ccc(OC)cc3[nH]c(=O)c21 | active |
| COc1ccc2c(c1)NC1=C(C(=O)OC1)C2c1cc(OC)c2c(c1)OCO2 (stereo not given) | inactive |
| c1coc(CNc2ccnc(Nc3ccc(OCCN4CCCCC4)cc3)n2)c1 | inactive |
| COc1ccc2[nH]c(C(=O)OCc3ccc4c(Cl)cc(Cl)c(O)c4n3)cc2c1 | active |
| C=CCn1cc(-c2nc3ccccc3s2)c2cc(-c3ccc4c5c(cccc35)C(=O)N(CCN3CCNCC3)C4=O)ccc21 | inactive |

====

Test system: NCI/ADR-RES ovarian
Assay: NCI-60 one-dose screen, 48 h (100 = growth as untreated, 0 = no growth, -100 = all killed)
Details: 10 µM unless noted
The panel holds about 83,000 compounds, 20% with a hit somewhere; the sample as a whole holds those more often.
# label = t if growth >= 70% else f

| compound | answer-label |
| --- | --- |
| NC(=N\N=C/c1ccc(O)cc1)/C(N)=N\N=C/c1ccc(O)cc1 | f |
| COc1ccc(-c2cc3c(OC)c(OC)c(OC)cc3oc2=O)cc1 | f |
| Cc1ccc(S(=O)(=O)NCCNc2cc(-c3cn(C(C)(C)C)nc3-c3cccc(O)c3)ccn2)cc1 | f |
| CCN1CCN(CC(=O)N2c3cccc4cccc(c34)N(C(=O)CN3CCN(CC)CC3)C2c2cn(-c3ccccc3)nc2-c2cccc([N+](=O)[O-])c2)CC1 | f |
| COc1cc(C2C3=C(COC3=O)Nc3cc4c(cc32)CCC4)cc2c1OCO2 (stereo not given) | f |
| O=C(O)C1CCCCN1c1nc(Cl)nc(Cl)n1 (stereo not given) | t |
| COc1cccc(/C=C2\Oc3cc(OCCCN4CCCC4)ccc3C2=O)c1OC | t |
| N/C(=N\C(N)=N\c1nc2ccccc2s1)c1cccc(Br)c1 | t |
| CC12CCC3C4(C)COC(c5ccco5)OC4CCC3(C)C1CC(C1=CCOC1=O)O2 (stereo not given) | t |
| O=C1CCCCC1(c1ccccc1)c1ccccc1 | t |

====

Test system: SF-539 CNS
Experiment: NCI-60 one-dose screen, 48 h (100 = growth as untreated, 0 = no growth, -100 = all killed)
Conditions: 10 µM unless noted
Compounds without any hit were thinned out: in the full panel of roughly 83,000, 20% have a hit.
Listing of recorded growth by entry.
property-measured: growth (%)

| compound | property-measured | unit-of-measure | data-value |
| --- | --- | --- | --- |
| O=C(/C=C/c1c[nH]c2ccccc12)c1ccc(O)c(CN2CCN(c3ccc(F)cc3)CC2)c1 | growth | % | 98.3 |
| CCN(CC)CCCC(C)Nc1c2ccc(Cl)cc2nc2cc(OC)c(OC)cc12 (stereo unspecified) | growth | % | -87.9 |
| CN1C(=O)N(C)C2C1NN=c1s/c(=C\C=C\c3ccccc3)c(=O)n12 (stereo unspecified) | growth | % | 54.8 |
| ClC(Cl)c1nc(-c2cccnc2)n2nc(-c3ccccc3)cc2n1 | growth | % | 60.8 |
| CCO/C=N/C1=C(C#N)C(c2ccc(Cl)cc2)c2c(c3ccccc3n(C)c2=O)O1 (stereo unspecified) | growth | % | 72.2 |
| CC(C)(C)n1cc(-c2ccnc(NCCCNS(=O)(=O)c3ccccc3)c2)c(-c2cccc(O)c2)n1 | growth | % | 38.3 |
| N#Cc1c(-c2ccccc2)cc(-c2ccccc2)n(CC(=O)NO)c1=O | growth | % | 63.9 |
| Nc1cc2c(cc1C(=O)c1cccc(F)c1)OCCO2 | growth | % | 103 |
| O=c1ccn(-c2ncnc3nc[nH]c23)cc1 | growth | % | 96.4 |
| Nc1ccc(C(=O)CSc2nc3ccccc3[nH]2)cc1 | growth | % | 104 |
| FC(F)(F)c1cccc(-c2cn3c(ccc4ccccc43)n2)c1 | growth | % | 99.5 |
| CN(C[C@H]1Cc2c(cccc2N2CCN(c3ncccn3)CC2)CN1)[C@H]1CCCc2cccnc21 | growth | % | 55.5 |
| O=C(NNC(=S)Nc1ccccc1)c1cc2ccc1CCc1ccc(cc1)CC2 | growth | % | 82.9 |
| CCN(CC)CCOC(=O)C(c1ccccc1)(c1ccccc1)C(C)C | growth | % | 107 |
| COc1ccc(-n2c(=S)sc3c(Cl)nc(C)nc32)c(OC)c1 | growth | % | 20 |
| Oc1ccccc1/C=N/NC(=S)NC1CC2C=CC1C2 (stereo unspecified) | growth | % | 93.8 |
| O=C(Nc1ccc(Cl)c(Cl)c1)NS(=O)(=O)c1cnccc1Oc1ccc(F)cc1 | growth | % | 90.1 |
| CC(C)(C)OC(=O)NC(CSCc1ccccc1)C(=O)ON1C(=O)CCC1=O (stereo unspecified) | growth | % | 99.5 |
| O=S(=O)(NCCNc1nccc(-c2c(-c3cccc(O)c3)nc3sccn23)n1)c1ccc(F)cc1 | growth | % | 96.5 |
| O=C1NN(C(=O)c2ccc(Cl)cc2)C(c2ccccc2)=N/C1=C\c1ccc(F)cc1 | growth | % | 84.8 |
| N#Cc1ccc(N2Cc3ccccc3OC3=C2C(=O)c2c(O)ccc(O)c2C3=O)cc1 | growth | % | -17.5 |
